- target-under-test: human plasma kallikrein (Homo sapiens (Human))
- Sequence (P03952 391-638): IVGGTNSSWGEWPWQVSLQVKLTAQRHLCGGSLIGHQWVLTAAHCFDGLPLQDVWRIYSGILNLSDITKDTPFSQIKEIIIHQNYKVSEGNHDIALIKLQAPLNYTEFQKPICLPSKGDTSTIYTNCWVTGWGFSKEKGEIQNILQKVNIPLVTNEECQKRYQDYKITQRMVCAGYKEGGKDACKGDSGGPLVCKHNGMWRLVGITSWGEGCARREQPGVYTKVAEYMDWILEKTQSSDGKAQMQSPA
- Sequence (P03952 20-390 partner): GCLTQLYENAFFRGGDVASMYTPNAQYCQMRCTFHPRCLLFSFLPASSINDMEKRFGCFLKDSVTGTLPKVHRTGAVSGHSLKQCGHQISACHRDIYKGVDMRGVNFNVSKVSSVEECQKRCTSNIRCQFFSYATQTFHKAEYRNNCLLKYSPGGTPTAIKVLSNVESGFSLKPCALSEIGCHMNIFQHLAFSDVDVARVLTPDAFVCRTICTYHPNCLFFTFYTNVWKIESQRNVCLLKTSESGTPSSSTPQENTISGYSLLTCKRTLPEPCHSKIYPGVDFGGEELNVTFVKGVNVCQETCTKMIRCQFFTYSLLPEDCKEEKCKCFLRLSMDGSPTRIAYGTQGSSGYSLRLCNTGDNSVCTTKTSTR
- assay-procedure: Kallikrein inhibition assay (FLINT) utilizing a quenched AMC peptide substrate
- Assay type: biochemical
- test-context: 30 min preincubation, kinetic reads over 30 min, Z-Gly-Pro-Arg-AMC substrate 50 μM; read-out: Kallikrein Kin Inh IC50
quantity-measured: IC50 (nM)

O=C1C=C(c2c(-n3cnnn3)ccc(Cl)c2F)C[C@H]2CC[C@@H](c3ncc(-c4ccc5cc[nH]c5c4F)[nH]3)N12 [Example 384] | 6.6
O=C1C=C(c2c(-n3cnnn3)ccc(Cl)c2F)CC2CC[C@@H](c3nc(-c4ccnc(OCCO)c4)c[nH]3)N12 (single isomer, unassigned) [Example 9] | 8.5

---

- target-under-test: human plasma kallikrein (Homo sapiens (Human))
- assay-procedure: Kallikrein inhibition assay (FLINT) utilizing a quenched AMC peptide substrate
- Assay type: biochemical
- test-context: 30 min preincubation, kinetic reads over 30 min, Z-Gly-Pro-Arg-AMC substrate 50 μM; read-out: Kallikrein Kin Inh IC50
quantity-measured: IC50 (nM)

Examples with answers:
O=C1C=C(c2c(-n3cnnn3)ccc(Cl)c2F)CC2CC[C@@H](c3nc(-c4cnn[nH]4)c[nH]3)N12 (some centres unmarked) | 542
CS(=O)(=O)Nc1cc(-c2cnc(C3CCC4CC(c5c(-n6cnnn6)ccc(Cl)c5F)=CC(=O)N43)[nH]2)ccn1 (centres unmarked) | 70.1
Nc1cc(-c2cnc([C@@H]3CC[C@@H]4CC(c5c(-n6cnnn6)ccc(Cl)c5F)=CC(=O)N43)[nH]2)ccn1 | 12.4
O=C1Nc2ccc(-c3cnc([C@@H]4CC[C@@H]5CC(c6c(-n7cnnn7)ccc(Cl)c6F)=CC(=O)N54)[nH]3)c(F)c2CO1 (single isomer, unassigned) | 1.7
O=C1C=C(c2c(-n3cnnn3)ccc(Cl)c2F)C[C@H]2CC[C@@H](c3ncc(-c4ccnc(CO)c4F)[nH]3)N12 (single isomer, unassigned) [Example 194] | 16.8

I. CC1=CCc2c(-c3cnc(C4CCC5CC(c6c(-n7cnnn7)ccc(Cl)c6F)=CC(=O)N54)[nH]3)ccnc21 (centres unmarked)
II. N#CC1(c2nccc(-c3cnc([C@@H]4CC[C@@H]5CC(c6c(-n7cnnn7)ccc(Cl)c6F)=CC(=O)N54)[nH]3)c2F)CC1 (single isomer, unassigned)
Q. I'm curious whether I or II has the smaller IC50 number. Which is it? Field: selected label. Fill in the label of the entry you choose.
A. I
(I: 1.5 nM, II: 22 nM)

---

- target-under-test: human plasma kallikrein (Homo sapiens (Human))
- assay-procedure: Kallikrein inhibition assay (FLINT) utilizing a quenched AMC peptide substrate
- Format: biochemical
- test-context: 30 min preincubation, kinetic reads over 30 min, Z-Gly-Pro-Arg-AMC substrate 50 μM; read-out: Kallikrein Kin Inh IC50
pIC50: −log10 of the molar value.
quantity-measured: pIC50

O=C1C=C(c2c(-n3cnnn3)ccc(Cl)c2F)C[C@H]2CC[C@@H](c3ncc(-c4ccnc(CO)c4F)[nH]3)N12 [Example 222] | 7.90

1. CC(=O)Nc1cc(-c2cnc([C@@H]3CCC4CC(c5c(-n6cnnn6)ccc(Cl)c5F)=CC(=O)N43)[nH]2)c(Cl)cn1 (stereo partly drawn)
2. O=C1C=C(c2c(-n3cnnn3)ccc(Cl)c2F)C[C@H]2CC[C@H](c3nc(Cl)c(-c4ccnc(C5(O)CC5)c4)[nH]3)N12
Q. Compare the recorded pIC50 of 1 and 2 ; state which is larger. Field: selected label. Fill in the label of the entry you choose.
A. 2
(2: 8.96, 1: 6.33)

1. NC(=O)c1ccc(-c2cnc([C@@H]3CC[C@H]4CC(c5c(-n6cc(C(F)(F)F)nn6)ccc(Cl)c5F)=CC(=O)N43)[nH]2)cn1 (single isomer, unassigned)
2. O=C1Cc2ccc(-c3cnc([C@@H]4CCC5CC(c6c(-n7cnnn7)ccc(Cl)c6F)=CC(=O)N54)[nH]3)c(F)c2N1 (stereo partly drawn)
Q. Compare the recorded pIC50 of 1 and 2 ; state which is larger. Field: selected label. Fill in the label of the entry you choose.
A. 2
(2: 7.90, 1: 6.71)
